These data points were gathered from PubChem BioAssay AID1159580.

Assay: chemical genetic growth profiling, strain panel (AID 1159580);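 further: tested at 20 µM; growth read once vehicle control cultures reached saturation at 30 °C; 1 = growth at the plate median or of vehicle wells; lower values mean less growth of the strain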
Details: S. cerevisiae deletion strains, growth OD, locus YFL009W, strain cdc4, hits give low values
Screen size: about 5,500 compounds; about 2,000 (36%) were called active. About 18% were inconclusive and are not listed. This is one part of the list.
attribute_measured: normalized growth

- Cc1cc(C(=O)N(c2ccccc2)C(C)C2CC2)c(Cl)cc1Cl (stereo unspecified): 0.973
- Clc1ccccc1N/N=C\Cc1nnnn1-c1ccccc1: 0.965
- O=C(NCc1cccs1)c1csc(Cc2c(Cl)cccc2Cl)n1: 0.957
- COc1ccc(C2CC(c3ccccc3)=Nc3ccccc3S2)cc1OC (stereo unspecified): 0.973
- O=C(CSCc1nc(-c2ccc(Cl)cc2)cs1)N/N=C\c1cccs1: 0.971
- CC(C)(C)c1csc(NC(=O)Nc2ccc(Cl)cc2)n1: 0.972

====

Each entry below carries its recorded normalized growth.
Test: chemical genetic growth profiling, strain panel (AID 1159580)
Details: S. cerevisiae deletion strains, growth OD, locus YNL175C, strain NOP13, hits give low values
Hit rate of the full screen: of about 5,500 compounds, about 2,000 (36%) were called active. Another 18% or so got no clear call; they are omitted. The list shows a part of the results.
attribute_measured: normalized growth

* O=C1CCc2cc(OCCCCc3nnnn3C3CCCCC3)ccc2N1 | 1.03
* C=CCc1ccccc1OCC(O)CNC(C)C (stereo not drawn) | 0.973
* CC1(NCC(O)COc2cccc3[nH]ccc23)CCC(C(C)(C)NC(=O)CBr)CC1 (stereo not drawn) | 1.02
* CC(=O)Oc1cc(C(C)C)c(OCCN(C)C)cc1C | 1.01
* CN1CC(O)C(O)C(O)C1CO (stereo not drawn) | 0.992
* Nc1ccc(N2C(=O)c3ccccc3C2=O)c(Cl)c1 | 0.958
* O=C1c2c(O)ccc(O)c2C(=O)c2c(NCCNCCO)ccc(NCCNCCO)c21 | 1.07
* CNCCc1c[nH]c2ccc(O)cc12 | 1.01
* O=C(c1cc(O)c(O)c([N+](=O)[O-])c1)c1ccccc1F | 0.985
* NCCc1c[nH]c2ccc(O)cc12 | 1.01
* NCCc1ccc(O)c(O)c1 | 1
* O=c1c(-c2ccc(O)cc2)coc2cc(O)cc(O)c12 | 1.01
* CN1CCC23CCCC[C@H]2C1Cc1ccc(O)cc13 (stereo partly drawn) | 1.01
* Nc1nnc(-c2cccc(Cl)c2Cl)c(N)n1 | 0.986
* CCCn1c(=O)[nH]c(=O)c2[nH]cnc21 | 1.01
* CN1C[C@@H](CS(=O)(=O)N(C)C)C[C@@H]2c3cccc4c3c(cn4C)C[C@H]21 | 1.01
* CC(C)C[C@H](NC(=O)C1OC1C(=O)O)C(=O)NCCCCN=C(N)N (stereo partly drawn) | 0.984
* CC(=O)[C@H]1CCC2C3CC=C4C[C@@H](OS(=O)(=O)O)CC[C@]4(C)C3CC[C@@]21C (stereo partly drawn) | 0.988

====

Assay: chemical genetic growth profiling, strain panel (AID 1159580);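 further: tested at 20 µM; growth read once vehicle control cultures reached saturation at 30 °C; 1 = growth at the plate median or of vehicle wells; lower values mean less growth of the strain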
Settings: S. cerevisiae deletion strains, growth OD, locus YDR162C, strain NBP2, hits give low values
Among all 5,500 compounds or so, about 2,000 (36%) were called active. Inconclusive results (about 18%) are left out. The list shows a part of the results.
attribute_measured: normalized growth

- COc1ccc2cc3[n+](cc2c1OC)CCc1cc2c(cc1-3)OCO2: 0.533 (active)
- COc1ccc(-c2cc(=O)c3cc(OC)ccc3o2)cc1: 1.01 (inactive)
- ClC(Cl)=C(c1ccc(Cl)cc1)c1ccc(Cl)cc1: 0.95 (inactive)
- O=C1c2c(O)ccc(O)c2C(=O)c2c(NCCNCCO)ccc(NCCNCCO)c21: 0.921 (inactive)
- COc1c2c(cc3c1OCO3)CC[N+](C)=C2: 1.05 (inactive)
- CC(=O)O.CC(=O)O.[Cd]: 0.111 (active)
- Nc1nc(N)c2nc(-c3ccccc3)c(N)nc2n1: 1.01 (inactive)
- COc1c(O)cc2c(-c3ccccc3)cc(=O)oc2c1OC: 1.01 (inactive)
- CC(C)(Oc1ccc(Cl)cc1)C(=O)O: 0.987 (inactive)
- COc1cccc2c1cc([N+](=O)[O-])c1c(C(=O)O)cc3c(c12)OCO3: 1.03 (inactive)
- O=c1c(-c2cc(O)c(O)c(O)c2)coc2cc(O)c(O)c(O)c12: 0.632 (active)
- CN(C)CCC=C1c2ccccc2CCc2ccccc21: 1.02 (inactive)
- CN1CCOC(c2ccccc2)c2ccccc2C1 (stereo unspecified): 1.01 (inactive)
- C[n+]1cc2c3c(ccc2c2ccc4cc5c(cc4c21)OCO5)OCO3: 0.0557 (active)
- CC(N)Cc1ccc(O)cc1 (stereo unspecified): 1 (inactive)
- C[N+]1(CCCCC[N+]2(C)CCCC2)CCCC1: 1.01 (inactive)
- COc1c(O)cccc1O: 1.03 (inactive)
- CC1=NCCc2c1[nH]c1cc(O)ccc21: 0.99 (inactive)
- COc1cc([C@@H]2c3cc4c(cc3[C@H](OC(C)=O)[C@H]3COC(=O)[C@H]23)OCO4)cc(OC)c1OC: 1.02 (inactive)
- O=C1CCc2cc(OCCCCc3nnnn3C3CCCCC3)ccc2N1: 1.02 (inactive)
- CCCCCCc1ccc(O)cc1O: 0.884 (inactive)
- CN(C)CC/C=C1/c2ccccc2COc2ccccc21: 1.02 (inactive)
- COc1cc2cc[n+]3cc4c(OC)c(OC)ccc4cc3c2cc1OC: 0.99 (inactive)
- COc1cccc(-c2cc(=O)c3cc(OC)ccc3o2)c1: 0.968 (inactive)
- CCCCC1C(=O)N(c2ccccc2)N(c2ccccc2)C1=O: 0.976 (inactive)
- CN(C)CCC=C1c2ccccc2C=Cc2ccccc21: 0.95 (inactive)

====

Assay: chemical genetic growth profiling, strain panel (AID 1159580);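 further: tested at 20 µM; growth read once vehicle control cultures reached saturation at 30 °C; 1 = growth at the plate median or of vehicle wells; lower values mean less growth of the strain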
Settings: S. cerevisiae deletion strains, growth OD, locus YNL307C, strain MCK1, hits give low values
The campaign covered roughly 5,500 compounds. About 2,000 (36%) were called active. About 18% were inconclusive and are not listed. This is one part of the list.
normalized growth: recorded values
attribute_measured: normalized growth

• CCC/C=C/C=C/[C@@H]1C[C@@H](O)[C@@H](O)C(=O)[C@H]1C=O = 0.954
• NCCc1cccc(O)c1 = 0.981
• COc1c(O)cc2c(-c3ccccc3)cc(=O)oc2c1OC = 0.95
• CSc1ccc2c(c1)C(N1CCN(C)CC1)Cc1ccccc1S2 (centres undefined) = 0.791
• CC(C)(Oc1ccc(Cl)cc1)C(=O)O = 0.976
• COc1ccc(-c2cc(=O)c3ccccc3o2)cc1 = 0.136
• Cn1c(=O)c2[nH]c(C3CCCC3)nc2n(C)c1=O = 0.996
• CCCCC1C(=O)N(c2ccccc2)N(c2ccccc2)C1=O = 1.01
• OC1C(O)C(O)C(O)C(O)C1O (centres undefined) = 0.984
• COC(=O)C1=C(C)NC(C)=C(C(=O)OC)C1c1ccccc1[N+](=O)[O-] = 0.903
• CN1CCN2c3ccccc3Cc3ccccc3C2C1 (centres undefined) = 0.993
• NS(=O)(=O)c1cc2c(cc1C(F)(F)F)NCNS2(=O)=O = 0.988
• CC(C)Oc1ccc2c(=O)cc(-c3ccccc3)oc2c1 = 0.848
• COc1cc([C@@H]2c3cc4c(cc3[C@H](O)[C@H]3COC(=O)[C@@H]23)OCO4)cc(OC)c1OC = 0.992
• COc1ccc(-c2cc(=O)c3ccccc3o2)cc1OC = 1.02
• CC(N)Cc1ccc(O)cc1 (centres undefined) = 1.03
• NCCc1ccc(O)c(O)c1 = 1
• CCC1C2CC3C4N(C)c5ccccc5C45CC(C2C5OC(C)=O)N3C1OC(C)=O (centres undefined) = 1.02
• CCCCCCc1ccc(O)cc1O = 0.322
• O=c1c(-c2cc(O)c(O)c(O)c2)coc2cc(O)c(O)c(O)c12 = 0.986
• O=C1CCc2cc(OCCCCc3nnnn3C3CCCCC3)ccc2N1 = 0.982
• COc1c(O)cccc1O = 1.01
• COc1cc2c3cc1Oc1cc(ccc1O)C[C@@H]1c4c(cc(OC)c(O)c4Oc4ccc(cc4)C[C@@H]3N(C)CC2)CC[N+]1(C)C = 1.01
• CC(=O)Oc1cc(-c2coc3cc(OC(C)=O)c(OC(C)=O)c(OC(C)=O)c3c2=O)cc(OC(C)=O)c1OC(C)=O = 1.02

====

Experiment: chemical genetic growth profiling, strain panel (AID 1159580);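 further: tested at 20 µM; growth read once vehicle control cultures reached saturation at 30 °C; 1 = growth at the plate median or of vehicle wells; lower values mean less growth of the strain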
Settings: S. cerevisiae deletion strains, growth OD, locus YDR195W, strain ref2
Hit rate of the full screen: of about 5,500 compounds, about 2,000 (36%) were called active. Not shown: some 18% with an inconclusive outcome. Some of the results follow.
Assign 1 to entries whose normalized growth meets or exceeds 1; assign 0 to the rest.

* COC(=O)C1=C(C)NC(C)=C(C(=O)OCCN(C)Cc2ccccc2)C1c1cccc([N+](=O)[O-])c1 (stereo unspecified) | 0
* CC1=NCCc2c1[nH]c1cc(O)ccc21 | 0
* Nc1nnc(-c2cccc(Cl)c2Cl)c(N)n1 | 1
